B1: VPS39 (parent)
chain: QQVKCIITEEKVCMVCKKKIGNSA

variants of: B1; assay: protein stability index of a GFP-peptide fusion (GPS, HEK-293T) (PSI 1-6); higher = more stable; conditions: c terminus: a fixed tail appended;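 note: lentivirally expressed fusions sorted by FACS into six bins by GFP to DsRed ratio, PSI derived from sequencing read proportions per bin multiplied by bin number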
assay-metric: protein stability index
The response must contain the number and no unit.

See these solved cases before continuing.
>  <sequence>
QQVKCIITEEKVFMVCKKKIGNSA

>  <protein stability index>
2.54

$$$$
>  <sequence>
QQVKCIIPEEKVCMVCKKKIGNSA

>  <protein stability index>
4.09

$$$$
>  <sequence>
QQCKCIITEEKVCMVCKKKIGNSA

>  <protein stability index>
4.46

$$$$
>  <sequence>
QQVKCAITEEKVCMVCKKKIGNSA

>  <protein stability index>
2.67

$$$$
>  <sequence>
QQVKCFITEEKVCMVCKKKIGNSA

>  <protein stability index>
2.6

$$$$

[Q] Look up protein stability index: QQVKCIITEEKVCMVCKKSIGNSA
[A] 2.25

[Q] // next record QQVKCIITEEKVCMVCWKKIGNSA
[A] 2.66

[Q] // next record QQVKCGITEEKVCMVCKKKIGNSA
[A] 2.47

[Q] // next record QQVKCIITEEKVGMVCKKKIGNSA
[A] 3.48

[Q] // next record QQVKCIITEEKVCMVCKKKSGNSA
[A] 3.67

[Q] // next record QQVKCIITEEKVCMVCKKKISNSA
[A] 2.7

[Q] // next record QQVHCIITEEKVCMVCKKKIGNSA
[A] 2.44
